Can you tell me amyloid nucleation score for the items I'm about to list?
Test: amyloid nucleation score (Sup35N fusion, yeast selection) (log enrichment); library NNK1; higher = more nucleation; inactive = no reads after selection;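 further: zero at mode of non-aggregating sequences after 7 days selection at 30°C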
Numbers only.

Reference set, count: 5
AWKLRVFRDSAL | 0.608
VWRHGHNELRIRYAVSLYM | 0.608
QYFKNDVKYVPFG | -0.514
GKMLFRGSGIRPCGALIGVK | -0.561
YLCRRT | 0.675

Hey, quick one: what's amyloid nucleation score for each of these?
1. SRLEKKGNWPVYSTQAVWMT
2. VVRAFLTLILAVIDEENGSE
3. YVVGARNEVRGYRVGTRLIR

[-0.421, -1.42, 0.155]

Please give the measured amyloid nucleation score for this substance: `VSGLAGPEM`
0.412

---

Assay: amyloid nucleation score (Sup35N fusion, yeast selection) (log enrichment); library NNK1; higher = more nucleation; inactive = no reads after selection
Quick rule for you: amyloid nucleation score at 0.4 or higher means yes (1), lower means no (0).

As a guide, the following entries are already answered.
KLSDSSLTKCRYSHFYRSSM | no (0)
LNSKILGKSRTCDENSWPFV | no (0)
FLMYFQNRV | yes (1)
DDTDLVLVMRRSIVERGMRE | yes (1)
DNAYPHPCSIYYNNNQFLRF | yes (1)

Given `LVFTNTLSTIFNNLHCYMWE` , state whether its amyloid nucleation score is at least 0.4.
yes (1)

Given `SFIYTSPGFCWRDMFDWQVP` , state whether its amyloid nucleation score is at least 0.4.
no (0)

Given `MDVIFGLMS` , state whether its amyloid nucleation score is at least 0.4.
yes (1)

---

Experiment: amyloid nucleation score (Sup35N fusion, yeast selection) (log enrichment); library NNK3; higher = more nucleation; inactive = no reads after selection
measured-endpoint: amyloid nucleation score

RSARQHFPRNRGGNHSSDRV | 0.204
SVKLKLGLCFPLYVSGFGLL | inactive
HNWNRFTQSILWGTYNFFVG | 2.26
FSCDHLGWLVVSVCSGLRWL | inactive
YRRAWRTIILKCTCLNQHV | 0.2

Hey, quick one: what's amyloid nucleation score for each of these?
1. RSTRIGLIYYMGMSATCTWG
2. RAMCIESTYLVMPYTTCNQT
3. IRLKQQDFEGSGKLFNGGHL
4. ELSACCYAMSWMVDCVRASL

["inactive", "inactive", "inactive", 1.34]

---

Experiment: amyloid nucleation score (Sup35N fusion, yeast selection) (log enrichment); library NNK3; higher = more nucleation; inactive = no reads after selection
measured-endpoint: amyloid nucleation score

Reference set, count: 4
VMHMWCHQGRVWFSTSGFLG | 0.35
CTVGIYLLNLC | 2.45
IALTWDSVIYSTYLGVNFLT | 0.627
LFLDWALIFLV | inactive

Hey, quick one: what's amyloid nucleation score for each of these?
1. KSFRIMMLRSWMLRLLKYQL
2. TNEIDLSEFMLQITLMLIRG
3. SSSSMFALLPICY
4. RFGAGILRSSNQDSGFRVTG
5. PTKRYVKSYLISCVFIISHP
6. KRFGKMLLW
7. HQIQLVATHPTEILHAGTSN
8. LFLGLIVVGTVLNELSMTNA

inactive
inactive
inactive
inactive
inactive
inactive
inactive
inactive

Hey, quick one: what's amyloid nucleation score for each of these?
1. FLLVFC
2. IFIQLLPYVFSTVEVSDFVG

1: -0.021; 2: 0.625

Hey, quick one: what's amyloid nucleation score for each of these?
1. RILLLDTEFRLPNLPTS
2. MDSLGW
3. IKWEQRLVVYIAYKKHRWQR
4. ITNIFFFHSTLLRSCRASGN

1.89
inactive
inactive
2.47

Hey, quick one: what's amyloid nucleation score for each of these?
1. NMVSFWN
2. SKYKVCFTRSFF

1. inactive
2. inactive

---

Assay: amyloid nucleation score (Sup35N fusion, yeast selection) (log enrichment); library NNK1; higher = more nucleation; inactive = no reads after selection
measured-endpoint: amyloid nucleation score

LTIRQWRFITAVGDLFLWMR | 0.331
GCCSEDFNINGVFCSCPKFC | 7.16
HQVIQGVSYSTCG | 0.107
LRSSVSFGQLSRNPHAGSSH | -1.4
DHLVEQYDRGDAAFFRLVFV | inactive

Hey, quick one: what's amyloid nucleation score for each of these?
1. LGFCTLFISMEDQLCVLQIL
2. IFYLRFPVLLVISPRCALYI
3. HYNFKDMNYKPLIVIEMHEW

1. -0.546
2. 0.623
3. 5.33

---

Assay: amyloid nucleation score (Sup35N fusion, yeast selection) (log enrichment); library NNK1; higher = more nucleation; inactive = no reads after selection
Quick rule for you: amyloid nucleation score at 0.5 or higher means rule met, lower means rule not met.

GIGFNHVSHLVKENS | rule not met

Given `LRNAVFVDPSCNYYVFILRL` , state whether its amyloid nucleation score is at least 0.5.
rule met

Given `RTDFLMFIGCVMNKICTLKA` , state whether its amyloid nucleation score is at least 0.5.
rule met

Given `SVRANIA` , state whether its amyloid nucleation score is at least 0.5.
rule met

Given `FMWKINWRENLYRLYSFSAY` , state whether its amyloid nucleation score is at least 0.5.
rule not met

Given `GNVSDYVVMIGVMVSLPCLI` , state whether its amyloid nucleation score is at least 0.5.
rule not met

Given `PCTLGFVSSPSDG` , state whether its amyloid nucleation score is at least 0.5.
rule met

Given `MQSLRLTESSGPFSLYFAFI` , state whether its amyloid nucleation score is at least 0.5.
rule not met

Given `VSIFPFLTCLVVNLMLGGPV` , state whether its amyloid nucleation score is at least 0.5.
rule met

---

Experiment: amyloid nucleation score (Sup35N fusion, yeast selection) (log enrichment); library NNK1; higher = more nucleation; inactive = no reads after selection
Each record's class is read off its amyloid nucleation score using these ranges: lower segment = under -0.1, middle segment = from -0.1 up to 0.6, upper segment = 0.6 and over

Which bin should I file `ECSRGVVIIWDMHVGGIDEC` under?
upper segment

Which bin should I file `HLIDVTILGWDEVSIM` under?
upper segment

Which bin should I file `MRLSQGGPLRLPRVTFSRYC` under?
middle segment

Which bin should I file `LWLRCLSIAAGIHQ` under?
upper segment

Which bin should I file `VYHIYDG` under?
lower segment

Which bin should I file `YYEAGQEPVNGMCSP` under?
middle segment

Which bin should I file `HSLSWDNKLCLCSAN` under?
middle segment

Which bin should I file `FYCVDN` under?
middle segment

Which bin should I file `HVGSATASRVMSGCGSTVSY` under?
lower segment

Which bin should I file `YCYEQVDSV` under?
middle segment

---

Can you tell me amyloid nucleation score for the items I'm about to list?
Test: amyloid nucleation score (Sup35N fusion, yeast selection) (log enrichment); library NNK1; higher = more nucleation; inactive = no reads after selection
Give bare numbers.

Hey, quick one: what's amyloid nucleation score for each of these?
1. PSSNLRFFTLNFAFLVPISS
2. SKFSISRTHNSHLSYSGLGG
3. SMSCVVHRGSSASCWMFYRN

[-0.521, 0.056, 0.784]

---

Test: amyloid nucleation score (Sup35N fusion, yeast selection) (log enrichment); library NNK2; higher = more nucleation; inactive = no reads after selection
Each record's class is read off its amyloid nucleation score using these ranges: range A: < 0.1; range B: ≥ 0.1 and < 0.7; range C: ≥ 0.7

IPNSGRGWSPAWPKMALTYS | range C
LMALTPIVVVYIMGSMDLST | range A
FDYAQRWSQP | range B
FVYVIFQSNMGPYWRNRRLL | range B
CSLPCVTNWCRRRNMVSQPV | range A
FGSVSSWELPRP | range B

Which bin should I file `IFCYPQCVGPRSLCVGGNME` under?
range A

Which bin should I file `TVLLGHLEGRVYWEPMIQQV` under?
range B

Which bin should I file `IQRPADRIQHMTMWHTQDLV` under?
range C

Which bin should I file `RTLYSGWVGHVSKEARNLFK` under?
range C

Which bin should I file `LSHEFMIEW` under?
range A

Which bin should I file `HYVIVNIICCSDVGVLSRDR` under?
range C

---

Test: amyloid nucleation score (Sup35N fusion, yeast selection) (log enrichment); library NNK2; higher = more nucleation; inactive = no reads after selection
Can you tell me amyloid nucleation score for the items I'm about to list?
Numbers only.

Reference set, count: 3
YCWWRSWEPKILRCSLVLVK | 0.281
FCMAISFQCVNTRGFMPTAG | 7.39
KPWVTLLVCCSVYRFFMYYA | 4.96

Hey, quick one: what's amyloid nucleation score for each of these?
1. LTCLFPFWRWCIPAAIEFRR
2. NRRYLKPSGPEEGWMMLSGT
3. LVFTCGWSDTRE
4. ALMVEDRH
5. VGDRSFVMFSIFESAGSCCT
6. ILEACREAARPAITFSFFTK
7. TYYFVVQFI
8. FCEICPKYYALFEEGQLSGR

1: 0.901; 2: 1.03; 3: 5.08; 4: 0.382; 5: 1.03; 6: -1.04; 7: 8.28; 8: 3.62
